Reference for the values: the supplement of paper PMC10567573

// reported protein stability index for each item listed
assay: protein stability index of a GFP-peptide fusion (GPS, HEK-293T) (PSI 1-6); higher = more stable; details: treatment: DMSO; c terminus: a fixed tail appended;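 also: 24-mer peptide tiles fused after GFP, lentivirally expressed, FACS-sorted into six equal bins by GFP/DsRed ratio, decoded by Illumina sequencing, PSI is the read-weighted mean bin number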

Sample answers from the record:
LFFAVGIAQYALLGYFIRSWRTLA [SLC22A15]
3.3
LKMKEREEAWVKIENLAKANPQYT [PPP2R5C]
3.4
GGPGRQTTSPNVLWPTPGHLSPLV [ESR2]
2.97

Data point: STQLEMQLEKPKPVKPVTFSTGIK [MNAT1] ; protein stability index = 4.28

Noted for DSLPMDAYTHGCILHPELTVDSMI [GDAP1] : its protein stability index reads 3.29

Value of measured protein stability index for the entry INRVSTCYSEEITVCGDLHGQLDD [PPEF2] : 4.24

AKTIDTSPPVDLFATASAAVPVST [SNAP91] yielded protein stability index of 4.37

Sure, the documented protein stability index for PSGPPPPPPSVLGVGPVAPPPPPP [WASL] is 4.86

For this sequence ( AEMNRGSNEWKTVVGGAMFFIGFT [COX4I1] ), measured protein stability index is 2.95

Short answer for AYLVTVRGNLSILAAVLVEPKLHT [OR3A1] : protein stability index was 3.21

Kindly note the recorded protein stability index for QRIKSQERETEATRGRGGLLRDHI [MOG] , which is 4.59

Reported protein stability index of AAAAAAPAPPPPAGGATAWGDLLG [SNAP91] : 4.37

So for MACAYAPSGCAIACGGLDNKCSVY [GNB5] , the logged protein stability index turned out to be 2.44

----------
experiment: protein stability index of a GFP-peptide fusion (GPS, HEK-293T) (PSI 1-6); higher = more stable; settings: treatment: MLN4924 1 uM, 8 h; c terminus: a fixed tail appended
Quick reference: protein stability index of the listed items.
Number only, no unit.

Worked examples follow.
LLFNVKSPTDIQDSSIIRTTQDLF [RHOBTB3]
2.35
ERFHGVGILGFNSAEWFITAVGAI [ACSBG2]
2.78
TPPPGPASAQPLPAPEAAHTTGPT [TFE3]
5.38
MTPQLFINYKLKSVAHLPWRMLTY [CLPTM1]
2.45
IGDTSVSYKYTSRYVLKAGQTVTI [LMNB1]
2.29

Recorded protein stability index (sequence VDRNTRPGPQDPEESASRQRFGEA [ELOA2] ): 5.14

protein stability index measured on DEEHMEEAITSASFLEQIMAPLQP [FAM189A2] = 4.96

According to the records, this sequence SDDFCTFQMVLEGGVCCTVTLNFN [GFOD1] displays protein stability index of 3.02

The reported protein stability index of the sequence IITQLEDSRRVTKENSHQVKEELS [TRIM63] was 4.39

Entry QTQVKIWFQNKRSKFKKLMKQGGA [DLX1] — recorded protein stability index = 2.1

Short answer for KYWCVTATRVAPERLFGSAANVVS [ZBED1] : protein stability index was 2.38

----------
assay: protein stability index of a GFP-peptide fusion (GPS, HEK-293T) (PSI 1-6); higher = more stable; conditions: treatment: MLN4924 1 uM, 8 h; c terminus: a fixed tail appended
Catalogue of protein stability index values
Hey, just send me the number, nothing else.

Some entries whose results are on file:
DPDVGVNSLQSYQLSPNKHFSLRV [PCDHGA10]
2.51
AGEPGHSPADYLRFQDLVLRMLEY [DYRK1B]
2.33

Quick note, protein stability index for MPAHLLQDDISSSYTTTTTITAPP [SCD] landed at 3.88

Notebook: RRITYLQNPKDCSKAKKLVCNINK [FUT8] , protein stability index read as 3.05

The sequence listed as VAAGRTQKAGVTRSGRLILWEAPP [NEK8] shows protein stability index equal to 2.94

Note to self: protein stability index recorded for PSGCAIACGGLDNKCSVYPLTFDK [GNB5] was 2.94

SGAFQWEELEEDIRKKLKDSGDVS [RHOBTB3] yielded protein stability index of 5.2

For this sequence ( NASHKLEVRLVPVSFEDPEFKSSF [ATE1] ), measured protein stability index is 3.18

The reported protein stability index of the sequence GGPGRQTTSPNVLWPTPGHLSPLV [ESR2] was 3.15

Consider LVQHGVKPQEIVQVEIFSTNPDLY [IQUB] . Its measured protein stability index is 2.32

The sequence identified as KSLDGVTNDRTASQGQWGRAWEVD [DHCR7] registered its protein stability index at 4.46

Quick note, protein stability index for RDVYLPAGKWRSYKGELFDKTPVL [MYORG] landed at 2.51

The value of protein stability index measured for the sequence DRFSGETSAAALSPMSAATLGGLN [SMTNL2] turned out to be 4.21

----------
# protein stability index annotations
assay: protein stability index of a GFP-peptide fusion (GPS, HEK-293T) (PSI 1-6); higher = more stable; details: treatment: DMSO; c terminus: a fixed tail appended
Respond using a number only.

DSRRVTKENSHQVKEELSQKFDTL [TRIM63]
5.08
LDQALKEGGKLPPPPPPSYDPDYI [ZC2HC1A]
4.95
DLHKMNHVTPPNVSLGATGGPPAG [JUNB]
4.38
GMDFHRFYFENALSKSNKPIHTII [CAMK2D]
2.94
LSRVKAAALSERGQAEEELIKAKS [LRRC45]
5.01
DPRYNKWMQVASLNEKRTFFHLSA [KLHL13]
2.36
QGSLSNTYLSKVDPDGKKIKQIQQ [FBXO33]
4.28
SLHKHLTIRLNISDVNDNAPRFNQ [PCDHGC5]
2.32

Value of protein stability index reported for the sequence SSSSQIGNDSFQLQVTEDVNSSIK [CLCN6] is 5.14

Entry AILVMHHSMKPHPAITATLLDFMC [INTS3] — recorded protein stability index = 2.91

----------
assay: protein stability index of a GFP-peptide fusion (GPS, HEK-293T) (PSI 1-6); higher = more stable; conditions: treatment: DMSO; c terminus: a fixed tail appended
# protein stability index listing for each entry below

# annotated cases, reported protein stability index shown
ERSLRLQARYHDTPYKPPAGRAAA [MYORG]
3.55
WLSANPCPHCGDRTFYDPEPILCP [PRAME]
2.45
GSINLLESPQLATLAEDVTAALAK [MAP2]
4.12

Quick note, protein stability index for HGGSLLGKKYNWSCDDLMGGGGLH [GFOD1] landed at 2.73

Value of protein stability index reported for the sequence ALVCLLSCLLPSSEAKLYGRCELA [SPACA3] is 3.18

Sure, the documented protein stability index for RGSIQSRYISMSVWTSPRRLVELA [PRAME] is 2.52

protein stability index for PGGGAGMAAGFPYALRAYLGYQAV [CEBPB] is 2.71

get_value(item= GYPLPKLDMNFSLENREEPWVKEL [ZNF449] , readout=protein stability index) returns 3.53

Form field protein stability index, entry GGSGPAGLRASTSDGILRGNGTGY [RHOBTB2] : 4.31

# protein stability index of RIHTGERPYMCKECGKAFSQNSSL [ZNF8] = 2.84

Noted for QKRSRAIHSSDEGEDQAGDEDEDD [WAS] : its protein stability index reads 5.69

# protein stability index (sequence: RYPVCKFPSLQVTAILIECGADVN [FEM1C] ) is 2.71

sequence SCSQGSGILHYAHGDSQQTHLLKQ [CRY1] , protein stability index observed: 3.29

----------
In this section, each of the sequences is paired with its reported protein stability index.
experiment: protein stability index of a GFP-peptide fusion (GPS, HEK-293T) (PSI 1-6); higher = more stable; conditions: treatment: MLN4924 1 uM, 8 h; c terminus: a fixed tail appended
Please reply with the value in numeric form only.

What the record says about MRVGPVRSAMSGASQPRGPALLFP [TRIB1] : protein stability index is 3.08

// protein stability index lookup, sequence = FEYPESSGPARVIAIVSVMVILIS [KCNA1] , result: 2.87

# sequence MASLSRPSLPSCLCSFLLLLLLQV [MOG] ; its protein stability index = 2.28

The sequence listed as GIELMEVDPIGHVYIFATCLGLSY [MAGEA6] has a reported protein stability index of 2.92

Query FQAKKIPIVSSLADPLDTPPDSKE [PDZK1] yields protein stability index of 4.39

The measured protein stability index associated with SIKGSSGLGGGSSRTSCRLSGGLG [KRT17] reads 3.42

Query YQQLEDDKLSQKSSSSKLSRSPLK [EPB41L3] yields protein stability index of 5.04

GET /value?item= CYETLPRGQCLLYNWEEERATNHL [SPAG8] &field=protein stability index returns 3.09

So, ATIENAQPILQIDNARLAADDFRT [KRT16] ? Its protein stability index was 4.52

Lab note: TWEQTFQELIQEAKPRATWTLKLD [RTP4] gave protein stability index of 2.25

The value of protein stability index measured for the sequence QTLKAMVQAWPFTCLPLGVLMKGQ [PRAME] turned out to be 3.03

For this sequence ( GRDELGGGRRPGTSPALLQGTAEE [CDKN1A] ), measured protein stability index is 5.41

Reported protein stability index ( LRYQETPGPREALSQLRVLCCEWL [ZNF232] ) = 2.29

Documented protein stability index of QAEIENKRRQLEDERRQLQHLKSK [PALM] : 4.97

So, DMAGDWHWALRVTPGLGVVAVLLL [SPNS1] ? Its protein stability index was 2.5

protein stability index measured on CRAPPPEARGIRAPPLPDSPQPLA [FCHO1] = 4.3

// LSSLGENPQRQGLLKTPWRAASAM [GCH1] : protein stability index value = 3.17

GET /value?item= EDQVVVNKAAVMVHQLSKKEASRH [CTNNB1] &field=protein stability index returns 4.8

Entry under test: HMNRLQSQRAMLLQGTESLNRATQ [VTI1B] . Its protein stability index was 3.9

The sequence listed as SLHKHLTIRLNISDVNDNAPRFNQ [PCDHGC5] shows protein stability index equal to 2.28
